Reference source: paper PMC12679585

System: WI-38
methodDescription: In vitro cytotoxicity against normal human cells (MTT)
Type: cell-based
conditionInfo: normal human diploid cell line WI-38, MTT
pIC50: −log10 of the molar value.
quantityMeasured: pIC50

>>> result("CCS(=O)(=O)c1ccc2[nH]nc(C(=O)NNC(=O)NC3CCCCCC3)c2c1")
"< 6.82"

# context switch: different molecule, same pIC50
Find pIC50 for "CCS(=O)(=O)c1ccc2[nH]nc(C(=O)NNC(=O)NC34CC5CC(CC(C5)C3)C4)c2c1" on WI-38 and write it down.
< 6.82

----------
System: MCF-7
methodDescription: Antiproliferative assay (MTT)
Format: cell-based
conditionInfo: Homo sapiens, MCF7, MCF-7 breast, mean of three experiments ± SD
Each record's class is read off its IC50 using these ranges: low class (below 30 nM), middle class (30 nM to below 40 nM), high class (40 nM or more)

>>> class("CCS(=O)(=O)c1ccc2[nH]nc(C(=O)NNC(=O)NC3CCCCCC3)c2c1 [Compound 8h]")
"low class"
>>> class("CCCCCCCCNC(=O)NNC(=O)c1n[nH]c2ccc(S(=O)(=O)CC)cc12 [Compound 8d]")
"middle class"

Class label required: CCCCCNC(=O)NNC(=O)c1n[nH]c2ccc(S(=O)(=O)CC)cc12 [Compound 8a]
high class

Class label required: CCS(=O)(=O)c1ccc2[nH]nc(C(=O)NNC(=O)NC3CCC(C)CC3)c2c1 (stereo not shown) [Compound 8f]
high class

Class label required: CCS(=O)(=O)c1ccc2[nH]nc(C(=O)NNC(=O)NCc3ccccc3)c2c1 [Compound 8j]
middle class

Class label required: CCS(=O)(=O)c1ccc2[nH]nc(C(=O)NNC(=O)NCc3ccc(OC)cc3)c2c1 [Compound 8k]
middle class

Class label required: CCCCCCCNC(=O)NNC(=O)c1n[nH]c2ccc(S(=O)(=O)CC)cc12 [Compound 8c]
middle class

Class label required: CCS(=O)(=O)c1ccc2[nH]nc(C(=O)NNC(=O)NC34CC5CC(CC(C5)C3)C4)c2c1 [Compound 8g]
low class

Class label required: CCS(=O)(=O)c1ccc2[nH]nc(C(=O)NNC(=O)NCCc3ccccc3)c2c1 [Compound 8l]
high class

Class label required: CCS(=O)(=O)c1ccc2[nH]nc(C(=O)NNC(=O)Nc3ccc(F)cc3)c2c1 [Compound 8i]
high class

----------
# IC50 per record follows
methodDescription: In vitro cytotoxicity against normal human cells (MTT)
Assay type: cell-based
conditionInfo: human, WI-38 cells (normal human diploid cell line), normal human diploid cell line WI-38, MTT

>>> result("CCS(=O)(=O)c1ccc2[nH]nc(C(=O)NNC(=O)NC34CC5CC(CC(C5)C3)C4)c2c1")
"> 120 nM"

# context switch: different molecule, same IC50
State its IC50 for this molecule: "CCS(=O)(=O)c1ccc2[nH]nc(C(=O)NNC(=O)NC3CCCCCC3)c2c1"
> 120 nM

----------
studyTarget: UniProt:P00533
Sequence (P00533 669-1210): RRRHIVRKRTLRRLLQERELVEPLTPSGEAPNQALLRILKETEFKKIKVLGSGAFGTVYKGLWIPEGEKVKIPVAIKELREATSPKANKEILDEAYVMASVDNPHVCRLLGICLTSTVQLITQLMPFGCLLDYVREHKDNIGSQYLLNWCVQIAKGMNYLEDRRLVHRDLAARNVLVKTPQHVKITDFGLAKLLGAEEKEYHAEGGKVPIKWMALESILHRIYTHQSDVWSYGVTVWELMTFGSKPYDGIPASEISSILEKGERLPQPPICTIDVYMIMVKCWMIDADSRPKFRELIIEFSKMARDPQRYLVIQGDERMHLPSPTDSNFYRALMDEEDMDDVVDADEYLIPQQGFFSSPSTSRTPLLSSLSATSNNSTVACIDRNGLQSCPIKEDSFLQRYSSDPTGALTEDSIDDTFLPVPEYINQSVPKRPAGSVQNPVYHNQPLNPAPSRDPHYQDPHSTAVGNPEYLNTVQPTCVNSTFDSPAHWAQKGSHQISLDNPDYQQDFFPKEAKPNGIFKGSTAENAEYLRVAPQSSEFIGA
methodDescription: EGFR inhibitory assay (EGFR-TK assay)
quantityMeasured: IC50

>>> result("CCS(=O)(=O)c1ccc2[nH]nc(C(=O)NNC(=O)NC34CC5CC(CC(C5)C3)C4)c2c1 [Compound 8g]")
"71 nM"

# context switch: different compound, same IC50
State its IC50 for this compound: CCS(=O)(=O)c1ccc2[nH]nc(C(=O)NNC(=O)NC3CCCCCC3)c2c1 [Compound 8h]
68 nM

----------
Test system: HCT-116 and MCF-7
methodDescription: Antiproliferative assay, average over the two cell lines
Format: cell-based
conditionInfo: Homo sapiens; average of HCT-116 and MCF-7; read-out: Average IC50 (GI50)
# IC50 per record follows
Report the figure in nM without appending any unit label.

>>> result("CCS(=O)(=O)c1ccc2[nH]nc(C(=O)NNC(=O)NC3CCCCCC3)c2c1")
24
>>> result("CCCCCCCNC(=O)NNC(=O)c1n[nH]c2ccc(S(=O)(=O)CC)cc12")
32
>>> result("CCCCCCCCNC(=O)NNC(=O)c1n[nH]c2ccc(S(=O)(=O)CC)cc12")
30
>>> result("CCS(=O)(=O)c1ccc2[nH]nc(C(=O)NNC(=O)Nc3ccc(F)cc3)c2c1")
40
>>> result("CCS(=O)(=O)c1ccc2[nH]nc(C(=O)NNC(=O)NC34CC5CC(CC(C5)C3)C4)c2c1")
26

State its IC50 for this compound: "CCCCCNC(=O)NNC(=O)c1n[nH]c2ccc(S(=O)(=O)CC)cc12"
48

State its IC50 for this compound: C#Cc1cccc(Nc2ncnc3cc(OCCOC)c(OCCOC)cc23)c1 [Erlotinib, reference compound]
35

State its IC50 for this compound: "CCS(=O)(=O)c1ccc2[nH]nc(C(=O)NNC(=O)NCc3ccccc3)c2c1"
34

----------
System: HCT-116 and MCF-7
methodDescription: Antiproliferative assay, average over the two cell lines
Type: cell-based
conditionInfo: Homo sapiens; average of HCT-116 and MCF-7; read-out: Average IC50 (GI50)
quantityMeasured: IC50

>>> result("CCS(=O)(=O)c1ccc2[nH]nc(C(=O)NNC(=O)NCCc3ccccc3)c2c1 [Compound 8l]")
"42 nM"
>>> result("CCCCCCNC(=O)NNC(=O)c1n[nH]c2ccc(S(=O)(=O)CC)cc12 [Compound 8b]")
"37 nM"
>>> result("CCS(=O)(=O)c1ccc2[nH]nc(C(=O)NNC(=O)NC3CCC(C)CC3)c2c1 (centres unmarked) [Compound 8f]")
"45 nM"
>>> result("CCS(=O)(=O)c1ccc2[nH]nc(C(=O)NNC(=O)NCc3ccc(OC)cc3)c2c1 [Compound 8k]")
"31 nM"

State its IC50 for this molecule: CCS(=O)(=O)c1ccc2[nH]nc(C(=O)NNC(=O)NC3CCCCC3)c2c1 [Compound 8e]
35 nM

----------
methodDescription: Cell viability assay (MTT) on normal mammary epithelial cells
Assay type: cell-based
conditionInfo: human, MCF-10A normal mammary gland epithelial cells, four days
quantityMeasured: viability at 4 days, 50 µM (%)
Report the figure in % without appending any unit label.

>>> result("CCS(=O)(=O)c1ccc2[nH]nc(C(=O)NNC(=O)NCCc3ccccc3)c2c1")
91
>>> result("CCS(=O)(=O)c1ccc2[nH]nc(C(=O)NNC(=O)NC3CCCCCC3)c2c1")
90
>>> result("CCS(=O)(=O)c1ccc2[nH]nc(C(=O)NNC(=O)NC3CCCCC3)c2c1")
91
>>> result("CCCCCCNC(=O)NNC(=O)c1n[nH]c2ccc(S(=O)(=O)CC)cc12")
92

State its viability at 4 days, 50 µM for this molecule: "CCS(=O)(=O)c1ccc2[nH]nc(C(=O)NNC(=O)Nc3ccc(F)cc3)c2c1"
91

State its viability at 4 days, 50 µM for this molecule: "CCS(=O)(=O)c1ccc2[nH]nc(C(=O)NNC(=O)NC34CC5CC(CC(C5)C3)C4)c2c1"
91

State its viability at 4 days, 50 µM for this molecule: "CCCCCCCNC(=O)NNC(=O)c1n[nH]c2ccc(S(=O)(=O)CC)cc12"
91

State its viability at 4 days, 50 µM for this molecule: "CCCCCCCCNC(=O)NNC(=O)c1n[nH]c2ccc(S(=O)(=O)CC)cc12"
90

State its viability at 4 days, 50 µM for this molecule: CCS(=O)(=O)c1ccc2[nH]nc(C(=O)NNC(=O)NC3CCC(C)CC3)c2c1 (stereo not drawn)
92

State its viability at 4 days, 50 µM for this molecule: "CCS(=O)(=O)c1ccc2[nH]nc(C(=O)NNC(=O)NCc3ccc(OC)cc3)c2c1"
92

State its viability at 4 days, 50 µM for this molecule: "CCS(=O)(=O)c1ccc2[nH]nc(C(=O)NNC(=O)NCc3ccccc3)c2c1"
90

State its viability at 4 days, 50 µM for this molecule: "CCCCCNC(=O)NNC(=O)c1n[nH]c2ccc(S(=O)(=O)CC)cc12"
90

----------
Tested on: MCF-7
methodDescription: Antiproliferative assay (MTT)
Type: cell-based
conditionInfo: Homo sapiens, MCF7, MCF-7 breast, mean of three experiments ± SD
# IC50 per record follows
Report the figure in nM without appending any unit label.

In the examples that follow, each entry is paired with its recorded IC50.
>>> result("CCS(=O)(=O)c1ccc2[nH]nc(C(=O)NNC(=O)NC3CCCCC3)c2c1")
39
>>> result("C#Cc1cccc(Nc2ncnc3cc(OCCOC)c(OCCOC)cc23)c1 [Erlotinib, reference compound]")
40

# context switch: different compound, same IC50
State its IC50 for this compound: "CCCCCCNC(=O)NNC(=O)c1n[nH]c2ccc(S(=O)(=O)CC)cc12"
40
